Biological target: T1, O3-bS
T1 chain: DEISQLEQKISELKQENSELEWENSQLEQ
Assay: two-hybrid library CCNG1;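 further: natural log of median RNA to DNA barcode read ratio; higher means stronger binding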
Lab note: anything with interaction score below -1 is marked T; values at -1 or higher are marked F.

binder: DEISQLEQENSELEQKISELKWENSQLEQ [O15-bS]
assignedClass: T
//
binder: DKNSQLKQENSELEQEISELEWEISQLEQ [O1-bS]
assignedClass: F
//
binder: DEIAQLKQKIAELEQENAELKWENAQLKQ [4H796-bA]
assignedClass: F
//
binder: DEISQLEQKISELKQENSELEWENSQLEQ [O3-bS]
assignedClass: T
//
binder: DKNSQLKQKISELKQKNSELKWEISQLEQ [O13-bS]
assignedClass: T
//
binder: DKISQLKQEISELEQENSELEWENSQLEQ [O11-bS]
assignedClass: T
//
binder: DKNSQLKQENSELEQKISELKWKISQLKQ [O10-bS]
assignedClass: F
//
binder: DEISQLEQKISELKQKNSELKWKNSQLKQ [O12-bS]
assignedClass: F
//
binder: DKISQLKQKNSELKQEISELEWKNSQLKQ [O16-bS]
assignedClass: T
//
binder: DENSQLEQEISELEQENSELEWKISQLKQ [O14-bS]
assignedClass: F
